These data points were gathered from patent US12473289B2.

Biological target: Delta-5-Desaturase (D5D) (Mus musculus (Mouse))
Sequence (Q920L1 whole entry): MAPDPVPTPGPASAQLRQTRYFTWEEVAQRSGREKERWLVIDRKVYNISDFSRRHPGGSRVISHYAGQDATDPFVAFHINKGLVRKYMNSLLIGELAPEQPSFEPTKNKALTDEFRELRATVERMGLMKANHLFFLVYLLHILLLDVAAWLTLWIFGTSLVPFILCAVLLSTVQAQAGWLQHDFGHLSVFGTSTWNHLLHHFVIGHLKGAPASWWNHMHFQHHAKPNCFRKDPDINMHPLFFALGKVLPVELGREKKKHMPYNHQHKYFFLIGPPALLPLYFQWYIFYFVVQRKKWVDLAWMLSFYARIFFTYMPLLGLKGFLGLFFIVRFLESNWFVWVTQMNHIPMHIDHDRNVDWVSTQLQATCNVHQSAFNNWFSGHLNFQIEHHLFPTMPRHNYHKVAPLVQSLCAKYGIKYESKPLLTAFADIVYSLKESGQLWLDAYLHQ
Assay: In vivo measurement of Delta-5-Desaturase inhibitory activity (plasma AA/DGLA ratio in DIO mice)
Settings: single oral dose 30 mg/kg, read-out: Average % D5D Inhibition expressed as Plasma Endogenous AA/DGLA Ratio
Assign satisfied to entries whose inhibition in vivo at 30 mg/kg meets or exceeds 60%; assign not satisfied to the rest.

Look over these answered cases.
>  <mol>
Nc1ccn2c(=O)c(-c3cnn(CC(F)(F)C(F)(F)F)c3)c(C(F)(F)F)nc2c1

>  <assigned category>
not satisfied

$$$$
>  <mol>
COc1ccn2c(=O)c(-c3ccc(OCC(F)(F)F)c(F)c3)c(C(F)(F)F)nc2c1

>  <assigned category>
satisfied

$$$$
>  <mol>
COc1ccn2c(=O)c(-c3ccc(OCC(C)(F)F)cc3)c(C(F)(F)F)nc2c1

>  <assigned category>
satisfied

$$$$
>  <mol>
COc1cc2nc(C(F)(F)F)c(-c3cnn(CC(F)(F)C(F)(F)F)c3)c(=O)n2cc1F

>  <assigned category>
satisfied

$$$$
>  <mol>
COc1ccn2c(=O)c(-c3cnn(CCC(F)(F)F)c3)c(C(F)(F)F)nc2c1

>  <assigned category>
satisfied

$$$$
>  <mol>
COc1ccn2c(=O)c(-c3ccc(OCC(F)(F)F)cc3)c(C(F)(F)F)nc2c1

>  <assigned category>
satisfied

$$$$
>  <mol>
CCOc1ccn2c(=O)c(-c3ccc(OCC(F)(F)F)cc3)c(C(F)(F)F)nc2c1

>  <assigned category>
not satisfied

$$$$
>  <mol>
COc1ccn2c(=O)c(-c3ccc(OCC4CC4)cc3)c(C(F)(F)F)nc2c1

>  <assigned category>
satisfied

$$$$

Qu. Decide: inhibition in vivo at 30 mg/kg of O=c1c(-c2cnn(CC(F)(F)C(F)(F)F)c2)c(C(F)(F)F)nc2cc(CO)ccn12 >= 60%?
Ans. not satisfied

----------
Biological target: Delta-5-Desaturase (D5D) (Homo sapiens (Human))
Assay: In vitro measurement of Delta-5-Desaturase inhibitory activity using DGLA-CoA and Arachidonyl-CoA mass spectrometric assays
Settings: membrane preparations of D5D-overexpressing HEK293 6E cells; averaged over at least two independent runs
Criterion: IC50 strictly under 10 nM. Met: t. Not met: f.

Please review the entries below; each comes with its answer.
>  <molecule>
COc1ccn2c(=O)c(-c3cnn(CC4COC4)c3)c(C(F)(F)F)nc2c1 [Example 39-54]

>  <assigned category>
f

$$$$
>  <molecule>
CCOc1nc2cc(OC)ccn2c(=O)c1-c1ccc(OCC(F)(F)F)cc1 [Example 1-81]

>  <assigned category>
f

$$$$
>  <molecule>
CCOc1ccn2c(=O)c(-c3ccc(OCC(F)(F)F)cc3)c(C(F)(F)F)nc2c1 [Example 11-3]

>  <assigned category>
f

$$$$
>  <molecule>
COc1cnn2c(=O)c(-c3cnn(CCC(F)(F)F)c3)c(C(F)(F)F)nc2c1 [Example 39-11]

>  <assigned category>
t

$$$$
>  <molecule>
NC(=O)c1ccn2c(=O)c(-c3ccc(OCC(F)(F)F)cc3)c(C(F)(F)F)nc2c1 [Example 12-2]

>  <assigned category>
t

$$$$

Qu. Field: below-cutoff. Rule: recorded IC50 strictly less than 10 nM. Subject: COc1cc2nc(C(F)(F)F)c(-c3ccc(OCC(F)(F)F)cc3)c(=O)n2cc1F [Example 39-57]
Ans. t

Qu. Do the same for C[S@+]([O-])c1ccn2c(=O)c(-c3ccc(OCC(F)(F)F)cc3)c(C(F)(F)F)nc2c1 [Example 15-3] please
Ans. f

Qu. Also O=c1c(-c2cnn(CCC(F)(F)F)c2)c(C(F)(F)F)nc2ccc(F)cn12 [Example 39-27] ?
Ans. t

Qu. And then COc1ccn2c(=O)c(-c3ncc(CCC(F)(F)F)s3)c(C(F)(F)F)nc2c1 [Example 58] , what is it?
Ans. f

Qu. Please do the same for COc1ccn2c(=O)c(-c3cnn(CCCC(F)(F)F)c3)c(C(F)(F)F)nc2c1 [Example 1-75] as well.
Ans. f

----------
Target: Delta-5-Desaturase (D5D) (Homo sapiens (Human), UniProt O60427)
Sequence (O60427 whole entry, species assumed): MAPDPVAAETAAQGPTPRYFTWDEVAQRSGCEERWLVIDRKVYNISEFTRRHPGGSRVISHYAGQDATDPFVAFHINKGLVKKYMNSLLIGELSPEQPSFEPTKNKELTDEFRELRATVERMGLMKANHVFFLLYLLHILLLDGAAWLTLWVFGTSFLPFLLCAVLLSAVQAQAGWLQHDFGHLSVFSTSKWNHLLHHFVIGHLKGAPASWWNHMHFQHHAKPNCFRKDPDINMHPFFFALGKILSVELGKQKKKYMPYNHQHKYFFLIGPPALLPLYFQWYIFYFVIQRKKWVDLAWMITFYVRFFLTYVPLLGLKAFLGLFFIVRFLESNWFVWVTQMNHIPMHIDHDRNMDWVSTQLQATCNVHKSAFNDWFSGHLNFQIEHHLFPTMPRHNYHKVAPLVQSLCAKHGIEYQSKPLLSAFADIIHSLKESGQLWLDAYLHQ
Experiment: In vitro measurement of Delta-5-Desaturase inhibitory activity using DGLA-CoA and Arachidonyl-CoA mass spectrometric assays
Details: membrane preparations of D5D-overexpressing HEK293 6E cells; averaged over at least two independent runs
// IC50 lookup, one value per entry
Return type: number; implicit unit µM.

Observe how each entry below is paired with its result.
>  <compound>
O=c1c(-c2ccc(OCC(F)(F)F)cc2)c(C(F)(F)F)nc2cc(-c3ncco3)ccn12 [Example 29]

>  <unit spec>
µM

>  <IC50>
0.0971

$$$$
>  <compound>
C[C@@H](O)c1ccn2c(=O)c(-c3cnn(CC(F)(F)C(F)(F)F)c3)c(C(F)(F)F)nc2c1 [Example 31-1]

>  <unit spec>
µM

>  <IC50>
0.164

$$$$
>  <compound>
COc1nc2nc(C(F)(F)F)c(-c3cnn(CC(F)(F)C(F)(F)F)c3)c(=O)n2cc1Cl [Example 66]

>  <unit spec>
µM

>  <IC50>
0.111

$$$$

Qu. Look up IC50 for this compound: O=c1c(-c2cnn(CC(F)(F)C(F)(F)F)c2)c(C(F)(F)F)nc2cc(C3CC3)ccn12 [Example 1-87]
Ans. 0.0859

Qu. Repeat for the following compound: COc1ccn2c(=O)c(-c3cnn(-c4ccccc4)c3)c(C(F)(F)F)nc2c1 [Example 1-47]
Ans. 0.0054

Qu. Repeat with O=c1c(-c2ccc(OCC(F)(F)F)cc2)c(C(F)(F)F)nc2cc(OCF)ccn12 [Example 17-2]
Ans. 0.0486

Qu. What about COc1ccn2c(=O)c(-c3cnc(OCC(F)(F)C(F)(F)F)nc3)c(C(F)(F)F)nc2c1 [Example 39-12] ?
Ans. 0.0537

Qu. Same for COc1ccn2c(=O)c(-c3ccc(OCC(F)(F)C(F)F)cc3)c(C(F)(F)F)nc2c1 [Example 9-1]
Ans. 0.0111

----------
Biological target: Delta-5-Desaturase (D5D) (Mus musculus (Mouse))
Assay: In vivo measurement of Delta-5-Desaturase inhibitory activity (plasma AA/DGLA ratio in DIO mice)
Conditions: single oral dose 30 mg/kg, read-out: Average % D5D Inhibition expressed as Plasma Endogenous AA/DGLA Ratio
inhibition in vivo at 30 mg/kg values by entry
Numeric answer only, unit % assumed.

Recorded inhibition in vivo at 30 mg/kg, per entry:
>  <compound>
COc1ccn2c(=O)c(-c3ccc(OCC(F)(F)F)nc3)c(C(F)(F)F)nc2c1

>  <target or test system>
Delta-5-Desaturase (D5D) (Mus musculus (Mouse))

>  <unit spec>
%

>  <inhibition in vivo at 30 mg/kg>
60

$$$$
>  <compound>
O=c1c(-c2ccc(OCC(F)(F)F)cc2)c(C(F)(F)F)nc2cc(CF)ccn12

>  <target or test system>
Delta-5-Desaturase (D5D) (Mus musculus (Mouse))

>  <unit spec>
%

>  <inhibition in vivo at 30 mg/kg>
75

$$$$
>  <compound>
COc1ccn2c(=O)c(-c3ccc(OCC(F)(F)F)c(F)c3)c(C(F)(F)F)nc2n1

>  <target or test system>
Delta-5-Desaturase (D5D) (Mus musculus (Mouse))

>  <unit spec>
%

>  <inhibition in vivo at 30 mg/kg>
72

$$$$
>  <compound>
COc1ccn2c(=O)c(-c3ccc(OCC(F)(F)F)cc3)c(C3CC3)nc2c1

>  <target or test system>
Delta-5-Desaturase (D5D) (Mus musculus (Mouse))

>  <unit spec>
%

>  <inhibition in vivo at 30 mg/kg>
56

$$$$

Qu. Entry COc1ccn2c(=O)c(-c3cnn(CC(F)(F)C(F)(F)F)c3)c(C(F)(F)F)nc2n1 has what inhibition in vivo at 30 mg/kg?
Ans. 66

Qu. Also need COc1ccn2c(=O)c(-c3ccc(OCC(F)(F)F)cc3C)c(C(F)(F)F)nc2c1 , thanks.
Ans. 60

Qu. Can you check O=c1ccn2c(=O)c(-c3ccc(OCC(F)(F)F)cc3)c(C(F)(F)F)[nH]c2c1 next?
Ans. 74

Qu. And then O=c1c(-c2ccc(OCC(F)(F)F)cc2)c(C(F)(F)F)nc2cc(CO)ccn12 , what is it?
Ans. 77

Qu. How about this compound: O=c1c(-c2cnn(CC(F)(F)C(F)(F)F)c2)c(C(F)(F)F)nc2cc(OCF)ccn12
Ans. 62

Qu. Moving on to the next compound: CCc1nc2cc(OC)ccn2c(=O)c1-c1ccc(OCC(F)(F)F)cc1
Ans. 75

Qu. What would you report for COc1ccn2c(=O)c(-c3cnn(CC(C)(F)F)c3)c(C(F)(F)F)nc2c1 ?
Ans. 62

Qu. // next record COc1ccn2c(=O)c(-c3ccc(OCC(F)(F)F)cc3)c(CF)nc2c1
Ans. 74

Qu. Queued: [2H]C([2H])([2H])Oc1ccn2c(=O)c(-c3cnn(CC(F)(F)C(F)(F)F)c3)c(C(F)(F)F)nc2n1
Ans. 67
